# assayInfo: Toxicity liver stage against HepG2, at 10uM
# Format: cell-based
# Design: test concentration 10 uM, cell line HepG2-A16-CD81EGFP
# conditionContext: human, HepG2-A16-CD81EGFP cells; read-out: INHIBITION
Listing of recorded cytotoxicity at 10 µM by entry.
Write your answer as a measured quantity: the number, then the unit.

Solved cases (3 shown):
| compound | cytotoxicity at 10 µM |
| --- | --- |
| Cn1ccc(CN2CCCC23CCN(Cc2cccc(F)c2)CC3)n1 | -103% |
| Cn1cccc1C(O)CNC(=O)c1ccc2nsnc2c1 (stereo unspecified) | 4.4% |
| CCC(=O)N1CCCC1c1nccnc1Nc1nc(C)cc(C)n1 (stereo unspecified) | 3.99% |

Prompt line: What measured cytotoxicity at 10 µM goes with Cc1cccc(-c2noc([C@@H]3C[C@@H](O)CN3C3CCOCC3)n2)c1 ?
Response line: 4.9%

Prompt line: What measured cytotoxicity at 10 µM goes with Cc1cncc(C2CCN(Cc3ccc(S(C)(=O)=O)cc3)CC2)n1 ?
Response line: -1.03%

Prompt line: What measured cytotoxicity at 10 µM goes with CC1CCN(C(=O)c2occc2COc2cccc(C#N)c2)CC1 ?
Response line: 0.106%

---

Listing of recorded cytotoxicity at 10 µM by entry.
# assayInfo: Toxicity liver stage against HepG2, at 10uM
# Format: cell-based
# Parameters: test concentration 10 uM, cell line HepG2-A16-CD81EGFP
# conditionContext: human, HepG2-A16-CD81EGFP cells; read-out: INHIBITION
The reply should be a number in %, with the unit left off.

Solved cases (2 shown):
| molecule | unitOfMeasure | valueMeasured |
| --- | --- | --- |
| Cn1ncc2c(N3CCN(CCO)CC3)nc(C3CCCC3)nc21 | % | -4.07 |
| Cc1noc(C)c1CN(C)C(=O)NC1CCOCC1 | % | -14.8 |

Prompt line: What measured cytotoxicity at 10 µM goes with OC1(CN2CCC(Oc3cccc(C(F)(F)F)c3)CC2)CNCCOC1 (configuration not stated) ?
Response line: -5.43

Prompt line: What measured cytotoxicity at 10 µM goes with CCOc1cc(C)nc(N2CCN(C(=O)Cn3cc(C)cn3)CC2)n1 ?
Response line: -5.43

Prompt line: What measured cytotoxicity at 10 µM goes with Cn1cc(CN2CC[C@]3(C[C@H](OCc4ccccn4)CO3)C2)cn1 ?
Response line: -1.08

Prompt line: What measured cytotoxicity at 10 µM goes with Cc1ccc(OCCC(=O)N2CCCC(n3nc(C)nc3C)C2)cc1 (configuration not stated) ?
Response line: -2.15

Prompt line: What measured cytotoxicity at 10 µM goes with Cc1cccc(C2(CNC(C)c3nnc(C)o3)CCCC2)c1 (configuration not stated) ?
Response line: 6.73

Prompt line: What measured cytotoxicity at 10 µM goes with CCc1ccc(CNC(=O)NCc2nnc3n2CCC3)s1 ?
Response line: 2.12

Prompt line: What measured cytotoxicity at 10 µM goes with Cc1nn(C)cc1S(=O)(=O)N(CCc1ccccc1)Cc1ccn(C)n1 ?
Response line: 1.43

Prompt line: What measured cytotoxicity at 10 µM goes with Fc1cccc(CN2CCO[C@H]3[C@@H](OCc4ccccn4)CC[C@@H]32)c1 ?
Response line: -0.902

Prompt line: What measured cytotoxicity at 10 µM goes with COCCC(=O)N1CCC2(CC1)CN(S(C)(=O)=O)Cc1ccccc1O2 ?
Response line: 3.73

Prompt line: What measured cytotoxicity at 10 µM goes with Cc1nn(C)c(N(C)C)c1CNCc1cnn(Cc2ccccc2)c1 ?
Response line: -5.6

Prompt line: What measured cytotoxicity at 10 µM goes with O=C(NC1CCCNC1=O)c1ccc2nc(-c3ccc(F)cc3)cn2c1 (configuration not stated) ?
Response line: 8.8

Prompt line: What measured cytotoxicity at 10 µM goes with O=C(NCCc1ccn(-c2ccccc2)n1)N1CCC1 ?
Response line: -0.361

Prompt line: What measured cytotoxicity at 10 µM goes with CN1CCN(C[C@H]2CC[C@@H](Cc3ccc4c(c3)OCO4)O2)CC1 ?
Response line: -5.13

Prompt line: What measured cytotoxicity at 10 µM goes with Cn1cc(C(=O)N2C[C@@H]3COC[C@]3(COCc3cccnc3)C2)cn1 ?
Response line: -0.8

Prompt line: What measured cytotoxicity at 10 µM goes with C=C(C)CN1CCN(Cc2cnc(-c3ccccc3C)nc2)CC1 ?
Response line: -33.6

Prompt line: What measured cytotoxicity at 10 µM goes with CN1CCN(Cc2cccnc2)C(=O)C12CCN(Cc1ccco1)CC2 ?
Response line: -4.34

Prompt line: What measured cytotoxicity at 10 µM goes with CSc1ncccc1C(=O)NCCC(O)c1cc(C)oc1C (configuration not stated) ?
Response line: 1.95

Prompt line: What measured cytotoxicity at 10 µM goes with CCN(Cc1cccc(F)c1)Cc1nc2c(cnn2C)c(=O)[nH]1 ?
Response line: 3.71

Prompt line: What measured cytotoxicity at 10 µM goes with COCc1cc(NCCc2ccccn2)n2nccc2n1 ?
Response line: -0.464

Prompt line: What measured cytotoxicity at 10 µM goes with N#Cc1cccc(N2CCCC3(C2)CN(c2nncs2)CCO3)c1 (configuration not stated) ?
Response line: 0.922

Prompt line: What measured cytotoxicity at 10 µM goes with Cc1cccc2[nH]c(C3CCN(C(=O)c4ccnn4C)CC3)nc12 ?
Response line: -21.6

Prompt line: What measured cytotoxicity at 10 µM goes with CN(C)Cc1ccc(C(=O)N2CCCC(COc3ccc(F)cc3)C2)o1 (configuration not stated) ?
Response line: -12.9
